Origin of values: PubChem BioAssay (NCI)

Tested on: OVCAR-8 ovarian
Assay: NCI tumour cell line growth inhibition, 48 h
assayMetric: TGI

>>> value("NC(=O)C(C(N)=O)=C(O)C(=O)/C=C(\\O)c1ccccc1")
"> 100 µM"
>>> value("CN=C(N=Nc1c(O)[nH]c2ccccc12)SCC(=O)c1ccc(Br)cc1")
"> 40.7 µM"
>>> value("COc1cc2c3c(n(C)c(=O)c2cc1OC)-c1cc2c(cc1/C3=C\\CN)OCO2")
"> 51.9 µM"
>>> value("O=C(O)[C@@H]1CCS(=O)(=O)N1")
"> 100 µM"
>>> value("CCOC(=O)C(=[N+]=[N-])[Si](C)(C)C")
"> 100 µM"
>>> value("Cn1cc(NC(=O)Nc2cc(C(=O)Nc3cc(C(=O)Nc4ccc(S(=O)(=O)O)c5cc(S(=O)(=O)O)ccc45)n(C)c3)n(C)c2)cc1C(=O)Nc1cc(C(=O)Nc2ccc(S(=O)(=O)O)c3cc(S(=O)(=O)O)ccc23)n(C)c1")
"> 100 µM"

====

Tested on: HT29 colon
Experiment: NCI tumour cell line growth inhibition, 48 h
Property: TGI; scope: individual compounds
assayMetric: TGI

>>> value("COC(=O)C(Cc1c[nH]c2ccccc12)NP(=O)(O)OCC1OC(n2cc(I)c(=O)[nH]c2=O)CC1O (configuration not stated)")
"> 100 µM"
>>> value("CC(CO)(CO)N1C(=O)C2C3C=CC(C3)C2C1=O (configuration not stated)")
"> 100 µM"
>>> value("CCCCNC(=S)Nc1nc(C(=O)NNC(=S)Nc2ccccc2)cs1")
"> 100 µM"
>>> value("Nc1nc(SC/C=C/c2ccccc2)c2[nH]cnc2n1")
"> 100 µM"
>>> value("COc1cc(NCc2ccc3nc(N)nc(N)c3c2C)cc(OC)c1OC (tested in a mixture with another compound)")
"41.9 µM"
>>> value("CN(C)C(n1cc2c(c1)-c1ccc(Cl)cc1C(c1ccccc1F)=NC2)n1cc2c(c1)-c1ccc(Cl)cc1C(c1ccccc1F)=NC2")
"> 100 µM"
>>> value("CN1C(=O)N(C)C2C1NN=c1s/c(=C\\c3ccc(Cl)cc3Cl)c(=O)n12 (configuration not stated)")
"> 100 µM"
>>> value("COC(CNC(=O)C(C)NC(=O)/C=C/c1ccccc1)OC (configuration not stated)")
"> 100 µM"
>>> value("COc1ccc2cc(/C=N/NC(=O)Nc3ccccc3)ccc2c1")
"> 100 µM"
>>> value("COc1ccc(-c2nc3ccc(-c4nc5ccc(N6CCN(c7ccccc7)CC6)cc5[nH]4)cc3[nH]2)cc1OC")
"2.68 µM"
>>> value("O=c1[nH]nc(Cc2ccccc2)n1/N=C/c1ccccc1O")
"> 100 µM"
>>> value("COc1ccc(Nc2nnc(-c3cc(O)ccc3O)s2)cc1")
"> 50 µM"

====

System: MCF7 breast
Test: NCI tumour cell line growth inhibition, 48 h
assayMetric: TGI

>>> value("COC(CNC(=O)C(C)NC(=O)/C=C/c1ccccc1)OC (configuration not stated)")
"> 100 µM"
>>> value("Cc1cc(S(=O)(=O)Nc2n[nH]c(N)n2)c(SCC(=O)O)cc1Cl")
"> 10 µM"
>>> value("CCn1c2ccccc2c2cc(NC(=O)Nc3ccc([N+](=O)[O-])cc3C)ccc21")
"> 100 µM"
>>> value("COc1ccc2c(c1)C(=O)c1c-2c(N2CCN(C(=O)CNCCNCCO)CC2)nc2ccccc12")
"3.5 µM"
>>> value("Cc1ccc(-n2c(N)c(C#N)c3[nH]nc(N)c3c2=O)cc1")
"> 100 µM"
>>> value("CN(CC(=O)O)c1ncc2c(n1)CCCC2")
"> 100 µM"
>>> value("COc1ccc(C(OCC2OC(n3cc(C)c(=O)[nH]c3=O)CC2n2cc(Cn3cc(Cl)c(=O)[nH]c3=O)nn2)(c2ccccc2)c2ccccc2)cc1 (configuration not stated)")
"> 100 µM"
>>> value("O=C(CC1(O)C(=O)N(Cc2ccccc2)c2ccc(F)cc21)c1ccc(C(=O)NCC2CCC3(CC2)OOC2(CCCCC2)OO3)cc1 (configuration not stated)")
"> 31.9 µM"
>>> value("O=C(N[C@@H](c1ccc(Cl)c(Cl)c1)C1CNC1)c1ccc2cnccc2c1")
"1.59 µM"
>>> value("COc1cc(-n2cc(-c3ccc(F)cc3)[nH]c2=O)cc(OC)c1OC")
"> 100 µM"
>>> value("C[C@@H]1CC[C@@H]2[C@@H]1[C@H](OC(=O)/C=C/c1ccccc1)[C@]1(C3CCCCC3)C[C@@H](OC(=O)CO)[C@@]2(C)O1")
"10.8 µM"
>>> value("O=C1C=CC(=O)c2cc3cc(CBr)ccc3cc21")
"> 100 µM"

====

Property: TGI; scope: individual compounds
System: RXF 393 renal
Test: NCI tumour cell line growth inhibition, 48 h
assayMetric: TGI

>>> value("CN(C)CCCC12CCCCC1=Nc1ccccc12 (centres undefined)")
"> 100 µM"
>>> value("O=C1/C(=C/c2cccc(Cl)c2Cl)N=C(c2ccccc2)N1C1CC1")
"> 50 µM"
>>> value("CCOc1ccc(NC(=O)CC#N)cc1")
"> 100 µM"
>>> value("CCOC(=O)C(=[N+]=[N-])[Si](C)(C)C")
"> 100 µM"
>>> value("CC(=O)c1sc(Nc2nnc(-c3ccc(-c4nnc(Nc5nc(C)c(C(C)=O)s5)o4)cc3)o2)nc1C")
"> 100 µM"
>>> value("O=C1Nc2ccccc2/C1=N\\[O-].O=C1Nc2ccccc2/C1=N\\[O-].[Cu+2]")
"> 100 µM"
>>> value("Cc1ccc(-n2c(N)c(C#N)c3[nH]nc(N)c3c2=O)cc1")
"> 100 µM"
>>> value("CN(C)CC1CCCC/C1=N/OC(=O)c1ccc(Cl)cc1 (centres undefined)")
"> 100 µM"
>>> value("CC1c2c(Cl)nc3ccccc3c2Oc2c1c(Cl)nc1ccccc21")
"> 100 µM"
>>> value("c1ccc(CCNc2ccccn2)nc1")
"> 100 µM"
>>> value("N#Cc1c(-c2ccc(Cl)cc2Cl)nc2[nH][nH]c(=S)n2c1=O")
"> 100 µM"
>>> value("CC(OC(C)(C)C)[C@H](NC(=O)OCC(Cl)(Cl)Cl)C(=O)O (some centres undefined)")
"> 100 µM"
>>> value("O=C(O)Cc1cc(Cl)ccc1O")
"> 100 µM"
>>> value("O=Cc1[nH]c(=O)[nH]c(=O)c1C(=O)O")
"> 100 µM"
>>> value("Cn1c(=O)c(-c2ccccc2)c(N=[N+]=[N-])c2ccccc21")
"> 100 µM"
>>> value("CC(C)(C)c1ccc(O)c(C(O)c2ccncc2)c1 (centres undefined)")
"> 100 µM"
>>> value("CN1CCOC(c2ccccc2)O1 (centres undefined)")
"> 100 µM"
>>> value("CN=C1CC2c3cc(OC)c(OC)cc3CCN2C2=C1C(=O)CC(C)(C)C2 (centres undefined)")
"> 100 µM"
>>> value("O=C1/C(=C/c2ccc3c(c2)OCO3)SC2C=Nc3ccccc3N12 (centres undefined)")
"> 100 µM"
>>> value("C1=CC(N(c2ccccc2)C2C=CCCC2)CCC1 (centres undefined)")
"> 100 µM"
>>> value("CC1(C)N=C(N)N=C(N)N1c1ccc(CCc2ccccc2)cc1")
"> 100 µM"
>>> value("COC(=O)/C=C(\\C)CC(O)/C=C(\\C)CCC=C(C)C (centres undefined)")
"> 100 µM"
>>> value("CCCCCCOC(=O)/C=C/[C@]1(CO)C/C(=C/CC(C(C)C)C(C)C)C(=O)O1")
"36.9 µM"
>>> value("CN=C(N=Nc1c(O)[nH]c2ccccc12)SCC(=O)c1ccc(Br)cc1")
"19.2 µM"
>>> value("CN(C)CCCN1CCC2(CCC(C(C)(C)C)CC2)CC1")
"4.13 µM"
>>> value("Cc1ccccc1N1C(=O)C2C=CC(n3[nH]c(=O)n(Cc4ccccc4)c3=O)CC2C1=O (centres undefined)")
"> 100 µM"
>>> value("CSc1ncnc2c1ncn2CCC(=O)OC(C)(C)C")
"> 100 µM"
>>> value("CO/N=C(\\COc1ccc2c(c1)oc(=O)c1cc(OC)ccc12)c1ccc(OC)cc1")
"> 100 µM"
>>> value("CCn1c2ccccc2c2cc(NC(=O)Nc3ccc([N+](=O)[O-])cc3C)ccc21")
"6.27 µM"

====

System: PC-3 prostate
Assay: NCI tumour cell line growth inhibition, 48 h; in the data active = GI50 below about 0.43 µM; inactive = the rest
Possible outcomes: active, inactive

>>> discretelabel("COc1ccc2[nH]cc(C3(c4c[nH]c5ccc(OC)cc45)C(=O)Nc4ccc(F)cc43)c2c1")
"inactive"
>>> discretelabel("Nc1c(C(=O)Nc2ccncc2)sc2nc3c(cc12)CCCCCCCC3")
"inactive"
>>> discretelabel("O=C(CSc1nc2ccccc2nc1-c1ccccc1)Nc1ccc(F)cc1")
"inactive"
>>> discretelabel("CC[C@H]1[C@@H]2C=C[C@@H]3[C@H]4C/C=C\\C(=O)NCCC[C@@H]5NC(=O)/C(=C(O)/C=C/[C@@H]4C[C@@H]3[C@H]2C[C@H]1C)C5=O")
"inactive"
>>> discretelabel("CS(=O)(=O)CCNCc1nc(-c2ccc3ncnc(Nc4ccc(OCc5cccc(C(F)(F)F)c5)cc4)c3c2)cs1")
"inactive"
>>> discretelabel("CN1C(=O)N(C)C2C1NN=c1s/c(=C\\c3ccc(Cl)cc3Cl)c(=O)n12 (stereo not drawn)")
"active"
>>> discretelabel("COc1ccc(-c2nn(-c3ccc(NC(=O)c4ccc(Cl)c(Cl)c4)cc3)cc2-c2ccncc2)cc1Cl")
"inactive"
>>> discretelabel("CN(C)CC[PH+](c1ccccc1)c1ccccc1.CN(C)CC[PH+](c1ccccc1)c1ccccc1.[Cl-].[Pd+2]")
"inactive"
>>> discretelabel("O=C(Nc1ccncc1)C(=O)c1cn(S(=O)(=O)c2ccc(F)cc2)c2ccccc12")
"inactive"
>>> discretelabel("O=C(c1ccccc1)c1cc2ccccc2o1")
"inactive"
>>> discretelabel("CCOC(=O)Nc1ccc(-c2nc(-c3cccc(OCCN4CCOCC4)c3)c(-c3ccnc(Br)c3)[nH]2)cc1")
"inactive"
>>> discretelabel("Cn1cc(C2=C(c3cn(CCCCO)c4ccccc34)C(=O)NC2=O)c2ccccc21")
"inactive"
>>> discretelabel("COc1ccc(-c2nc3ccc(-c4nc5ccc(N6CCN(c7ccccc7)CC6)cc5[nH]4)cc3[nH]2)cc1OC")
"inactive"
